- Test system: Escherichia coli
- test.context: Concentration 32 ug.mL-1;; ASSAY_TEST Inhibition of Bacterial Growth; detection method Absorption (OD600); MEDIA CAMHB; plate type 384well; NBS; CORNING #3640; time 18 hr
- Description: Antibacterial activity against Escherichia coli ATCC 25922 (CO-ADD:GN_001); MIC in CAMBH media using NBS plates, by OD(600)
Entries with a potency or affinity are not part of this list.

| compound | Inhibition [%] |
| --- | --- |
| CC(C)NC(=O)CCn1c(=O)c2ccccc2n2c(=O)n(CC#N)nc12 | 0.48 |
| O=C(CSc1nnc2c(=O)n(-c3ccc(F)cc3)ccn12)NCC1CCCO1 (stereo not given) | -8.97 |
| CCc1ccc(N(Cc2ccccc2)S(=O)(=O)c2cccn3c(C)nnc23)cc1 | -3.19 |
| CCCn1c(=O)c2ccc(C(=O)NC3CCCCC3)cc2n2c(=O)n(CC#N)nc12 | 2.29 |
| Cc1cccc(C)c1NC(=O)Cn1nc2ccc(SCc3ccc(Cl)cc3)nn2c1=O | -13.3 |
| O=C(Cn1nc2c(N3CCOCC3)nccn2c1=O)Nc1ccc(Br)cc1F | 2.9 |
| Cn1c(=O)c2sccc2n2c(=O)n(Cc3cccc(Br)c3)nc12 | 0.53 |
| COc1cccc(-n2ccn3c(SCC#N)nnc3c2=O)c1 | 0.96 |
| COc1ccc(-c2cc3c4nn(CC(=O)Nc5ccccc5)c(=O)n4ccn3n2)cc1 | 7.52 |
| CC1CCCN(c2nccn3c(=O)n(CC(=O)Nc4ccc(Br)cc4F)nc23)C1 (stereo not given) | 0.2 |
| COc1cccc(-n2ccn3c(SCC(=O)Nc4cc(Cl)ccc4OC)nnc3c2=O)c1 | -1.77 |
| COc1ccc(NC(=O)Cn2nc3c4cc(-c5ccc(C)cc5)nn4ccn3c2=O)c(OC)c1 | -1.29 |
| O=c1c2nn(Cc3ccccc3F)c(=O)n2ccn1-c1ccccc1 | -4.13 |
| Cc1cc(C)cc(NC(=O)Cn2nc3c4cc(-c5ccc(C)c(C)c5)nn4ccn3c2=O)c1 | -4.98 |
| Cc1ccccc1Cn1nc2ccc(-c3ccccc3)nn2c1=O | 1.97 |
| CCCCN(CC)c1ccc2nnc(CCc3nc(-c4ccc(Br)cc4)no3)n2n1 | -0.23 |
| CCOc1ccc(-n2ccn3c(SC(CC)C(=O)Nc4cc(F)ccc4F)nnc3c2=O)cc1 (stereo not given) | -0.34 |
| Cc1ccc(NC(=O)Cn2nc3ccc(-c4ccc(Cl)cc4)nn3c2=O)cc1F | -3.59 |
| O=C(Cn1nc2ccc(-c3ccccc3)nn2c1=O)N1CCN(c2ccc(F)cc2)CC1 | -0.36 |
| COc1cc(OC)c(NC(=O)Cn2nc3c(SC4CCCCC4)nccn3c2=O)cc1Cl | -4.1 |
| COc1ccc(NC(=O)c2ccc3nn(CC(=O)Nc4ccc(C(F)(F)F)cc4)c(=O)n3c2)cc1 | -5.89 |
| COc1ccc(NC(=O)Cn2nc3ccc(SC4CCCCC4)nn3c2=O)cc1OC | -2.79 |
| Cc1cc2nn(CC(=O)NC(C)C)c(=O)n2c(-c2ccc(C(F)(F)F)cc2)n1 | 1.53 |
| CCOc1ccc(NC(=O)Cn2nc3c(Sc4ccc(C)cc4C)nccn3c2=O)cc1 | -7.3 |
| CCOc1ccccc1NC(=O)Cn1nc2c(Oc3cccc(OC)c3)nccn2c1=O | -4.66 |
| CCOC(=O)c1cccc(NC(=O)Cn2nc3c4cc(-c5ccc(C)c(C)c5)nn4ccn3c2=O)c1 | -16.13 |
| Cc1cc2nn(CC(=O)NCc3ccc4c(c3)OCO4)c(=O)n2c(Nc2ccccc2C)n1 | -4.19 |
| COc1cccc(C(=O)Cn2nc3n(CCC(C)C)c(=O)c4sccc4n3c2=O)c1 | -5.88 |
| COc1ccc(-c2noc(Cn3nc4ccc(-c5ccccc5)nn4c3=O)n2)cc1OC | -3.1 |
| COc1ccc(Cl)cc1NC(=O)Cn1nc2c3cc(-c4ccc(C)cc4)nn3ccn2c1=O | 3.02 |
| Cc1ccc(Cn2c(=O)c3ccccc3n3c(=O)n(CC(=O)Nc4ccc5c(c4)OCCO5)nc23)cc1 | 1.04 |
| O=C(Cn1nc2ccc(Sc3cccc(F)c3)nn2c1=O)NCc1ccc(Cl)cc1 | 1.23 |
| CCCc1ccc(S(=O)(=O)Nc2ccc3nncn3n2)cc1 | 2.74 |
| CCCc1nnc2c(=O)n(CC(=O)Nc3ccc(C(C)=O)cc3)c3ccccc3n12 | 1.52 |
| O=C(Cn1nc2ccc(-c3ccccc3)nn2c1=O)Nc1ccc(F)c(Cl)c1 | -1.06 |
| Cc1cc(C)cc(NC(=O)Cn2nc3n(C)c(=O)c4c(c(-c5ccccc5)cn4C)n3c2=O)c1 | 1.88 |
| COc1ccc2[nH]cc(C(=O)CSc3nnc4c(=O)n(-c5cccc(Cl)c5C)ccn34)c2c1 | 2.67 |
| CCCCN(C)c1ccc2nnc(CCc3nc(-c4ccc(C(F)(F)F)cc4)no3)n2n1 | -3.35 |
| Cc1nnc2ccc(S(=O)(=O)N(Cc3cccc(Cl)c3)c3ccc(F)cc3)cn12 | -8.44 |
| Cc1cc(C)c(NC(=O)Cn2nc3c(N4CCN(c5ccccc5)CC4)nccn3c2=O)c(C)c1 | -0.55 |

----------
- Tested on: Escherichia coli
- test.context: Concentration 32 ug.mL-1;; ASSAY_TEST Inhibition of Bacterial Growth; detection method Absorption (OD600); MEDIA CAMHB; plate type 384well; NBS; CORNING #3640; time 18 hr
Potency and affinity values are given separately.
property.measured: Inhibition (%)

| molecule | measured.on | recorded.measurement |
| --- | --- | --- |
| N#CCn1nc2n(Cc3ccccc3)c(=O)c3ccccc3n2c1=O | Escherichia coli | 2.96 |
| O=C(Cn1nc2c(Sc3cccc(F)c3)nccn2c1=O)Nc1ccc(Br)cc1 | Escherichia coli | -5.66 |
| Cc1ccc(NC(=O)CSc2nc3ccccc3n3c(C(C)C)nnc23)cc1Cl | Escherichia coli | -6.42 |
| CCOc1ccc(-n2ccn3c(SCC(=O)NCc4ccc(Cl)cc4)nnc3c2=O)cc1 | Escherichia coli | 3.75 |
| Cc1ccc(-c2ccc3nnc(CCC(=O)NCc4ccc(Br)cc4)n3n2)cc1 | Escherichia coli | 0.41 |
| CCOC(=O)C1CCCN(C(=O)Cn2nc3n(CC(C)C)c(=O)c4sccc4n3c2=O)C1 (stereo not given) | Escherichia coli | -6.05 |
| O=c1n(Cc2cccc(C(F)(F)F)c2)nc2c(S(=O)(=O)N3CCCCC3)cccn12 | Escherichia coli | -3.78 |
| CC1CCCN(c2nccn3c(=O)n(CC(=O)Nc4ccc(F)cc4F)nc23)C1 (stereo not given) | Escherichia coli | -3.03 |
| CCCCOc1ccc(-c2cc3c4nnc(SCC(=O)Nc5cccc(C#N)c5)n4ccn3n2)cc1 | Escherichia coli | -7.05 |
| COc1cc(OC)c(NC(=O)Cn2nc3c(Oc4cccc(C)c4C)nccn3c2=O)cc1Cl | Escherichia coli | -3.57 |

----------
- Tested on: Staphylococcus aureus
- test.context: Concentration 32 ug.mL-1;; ASSAY_TEST Inhibition of Bacterial Growth; detection method Absorption (OD600); MEDIA CAMHB; plate type 384well; NBS; CORNING #3640; time 18 hr
- Description: Antibacterial activity against Staphylococcus aureus MRSA ATCC 43300 (CO-ADD:GP_020); MIC in CAMBH media, using NBS plates, by OD(600)
Results with a measured potency or affinity are listed apart.
Below: a set of entries, each annotated with reported Inhibition.

| compound | Inhibition |
| --- | --- |
| COc1ccc(NC(=O)C(C)Sc2nnc3c(=O)n(-c4ccc(C)c(C)c4)ccn23)cc1 (stereo not given) | 7% |
| CCCCOc1ccc(-c2cc3c4nnc(SCC(=O)Nc5ccc(OC)cc5)n4ccn3n2)cc1 | -5.31% |
| COc1ccc(NC(=O)Cn2nc3ccc(-c4ccccc4)nn3c2=O)cc1 | 6.57% |
| N#CCSc1nnc2c(=O)n(-c3ccccc3)ccn12 | 13.33% |
| COc1cccc(CN(c2cccc(F)c2)S(=O)(=O)c2ccc3nnc(C)n3c2)c1 | -5.28% |

----------
- Tested on: Staphylococcus aureus
- test.context: Concentration 32 ug.mL-1;; ASSAY_TEST Inhibition of Bacterial Growth; detection method Absorption (OD600); MEDIA CAMHB; plate type 384well; NBS; CORNING #3640; time 18 hr
Entries with a potency or affinity are not part of this list.
Below: a set of entries, each annotated with reported Inhibition.

| smiles.str | measured.on | Inhibition / % |
| --- | --- | --- |
| Cc1ccc2c(c1)N(C(=O)Cn1nc3ccc(Sc4ccccc4)nn3c1=O)CCO2 | Staphylococcus aureus | 5.63 |
| O=C(Cn1nc2c3c4c(sc3ncn2c1=O)CCCC4)NCc1ccc(F)cc1 | Staphylococcus aureus | 8.69 |
| Cc1cccc(C)c1NC(=O)Cn1nc2c(N3CCSCC3)nc3ccccc3n2c1=O | Staphylococcus aureus | -9.27 |
| Cc1cccc(NC(=O)c2ccc3nnc(SCC(=O)Nc4ccc(Br)cc4)n3c2)c1 | Staphylococcus aureus | 11.58 |
| CCCCc1ccc(NC(=O)Cn2nc3c(SC4CCCCC4)nccn3c2=O)cc1 | Staphylococcus aureus | -1.79 |
| CCc1ccc(N(Cc2ccc(C)cc2)S(=O)(=O)c2cccn3c(CC)nnc23)cc1 | Staphylococcus aureus | 5.86 |
| COc1ccc(CN(c2ccc(F)cc2)S(=O)(=O)c2cccn3cnnc23)cc1F | Staphylococcus aureus | 11.25 |
| Cc1ccc(-c2ccc3nn(Cc4cccc(Br)c4)c(=O)n3n2)cc1C | Staphylococcus aureus | 9.24 |
| O=C(Cn1nc2n(CCc3ccccc3)c(=O)c3ccccc3n2c1=O)Nc1ccc2c(c1)OCO2 | Staphylococcus aureus | -2.08 |
| Cc1ccc(CN(c2ccccc2)S(=O)(=O)c2ccc3nncn3c2)cc1 | Staphylococcus aureus | 12.66 |
| CSc1cccc(NC(=O)Cn2nc3c4c5c(sc4ncn3c2=O)CCCC5)c1 | Staphylococcus aureus | -8.02 |
| COc1ccc(NC(=O)Cn2nc3c(N4CCOCC4)nccn3c2=O)c(OC)c1 | Staphylococcus aureus | 14.25 |
| Cc1cccc(-c2nc(CSc3nc4ccccc4n4c(C(C)C)nnc34)c(C)o2)c1 | Staphylococcus aureus | 9.08 |
| O=C(Cn1nc2c3cc(-c4ccccc4)nn3ccn2c1=O)N1CCN(c2ccccc2F)CC1 | Staphylococcus aureus | 4.61 |
| CCOc1ccc(-n2ccn3c(SCC(=O)c4ccc(F)cc4)nnc3c2=O)cc1 | Staphylococcus aureus | 21.72 |
| Cc1cccc(Oc2nccn3c(=O)n(CC(=O)N4CCN(c5ccc(F)cc5)CC4)nc23)c1C | Staphylococcus aureus | 3.93 |
| CCOC(=O)c1ccc(NC(=O)Cn2nc3ccc(SCc4ccc(Cl)cc4)nn3c2=O)cc1 | Staphylococcus aureus | -0.24 |
| Cc1cc(NC(=O)CSc2nc3ccccc3n3cnnc23)ccc1Br | Staphylococcus aureus | 13.29 |
| CCCN(C)c1nccn2c(=O)n(CC(=O)Nc3ccc(F)cc3)nc12 | Staphylococcus aureus | 13.38 |
| Cc1cc(C)cc(Nc2nc(C)cc3nn(CC(=O)Nc4ccccc4)c(=O)n23)c1 | Staphylococcus aureus | 4.32 |
